Cited source: the supplement of paper PMC8728848

- Tested Target: Neu5Ac(a2-3)Gal(b1-3)GlcNAc(b1-2)[Neu5Ac(a2-3)Gal(b1-3)GlcNAc(b1-4)]Man(a1-6)[Neu5Ac(a2-3)Gal(b1-3)GlcNAc(b1-2)Man(a1-3)]Man(b1-4)GlcNAc(b1-4)GlcNAc
- Protocol Text: glycan array binding signal (z-score within array); higher = stronger binding
- Condition Details: glycan notation: IUPAC condensed, linker removed
The full list was thinned out, with the strongest signals kept by preference.
Attribute Measured: glycan array binding signal (z-score)
// return a plain number; no unit text

Prompt line: Item OGAA (protein) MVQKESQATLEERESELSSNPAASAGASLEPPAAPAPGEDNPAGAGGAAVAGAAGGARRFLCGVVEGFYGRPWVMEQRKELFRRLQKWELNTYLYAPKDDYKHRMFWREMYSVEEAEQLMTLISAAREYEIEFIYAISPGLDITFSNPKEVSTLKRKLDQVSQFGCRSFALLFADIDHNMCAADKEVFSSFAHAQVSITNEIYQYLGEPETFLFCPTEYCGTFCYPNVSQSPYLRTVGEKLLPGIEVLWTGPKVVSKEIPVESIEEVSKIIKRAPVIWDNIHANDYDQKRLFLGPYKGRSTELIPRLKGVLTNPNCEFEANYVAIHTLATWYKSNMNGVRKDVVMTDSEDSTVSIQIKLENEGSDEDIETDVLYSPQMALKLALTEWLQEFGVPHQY has what recorded glycan array binding signal (z-score)?
Response line: 0.068
